Target: glucokinase (GK) enzyme (Homo sapiens, UniProt P35557)
Sequence (P35557 whole entry, species assumed): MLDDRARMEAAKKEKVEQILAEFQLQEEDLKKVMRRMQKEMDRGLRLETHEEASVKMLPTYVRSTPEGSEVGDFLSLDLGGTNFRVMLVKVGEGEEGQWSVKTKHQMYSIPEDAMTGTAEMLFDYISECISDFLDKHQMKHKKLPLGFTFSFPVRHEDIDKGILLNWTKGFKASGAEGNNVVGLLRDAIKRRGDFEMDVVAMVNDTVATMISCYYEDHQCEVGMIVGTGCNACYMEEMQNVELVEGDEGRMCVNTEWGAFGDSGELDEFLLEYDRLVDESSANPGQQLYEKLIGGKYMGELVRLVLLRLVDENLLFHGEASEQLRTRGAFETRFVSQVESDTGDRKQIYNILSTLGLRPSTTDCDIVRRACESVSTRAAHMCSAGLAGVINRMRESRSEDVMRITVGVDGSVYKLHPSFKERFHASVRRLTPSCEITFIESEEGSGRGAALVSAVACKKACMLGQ
Experiment: In-vitro glucokinase (GK) activation assay (coupled with glucose-6-phosphate dehydrogenase, absorbance at 340)
Format: biochemical
Settings: 0.1 uM compound; glucose 2.5 mM; read-out: % of GK activity wrt DMSO
observation type: activity at 0.1 µM (%)
Give just the numeric value; % need not be written.

compound	activity at 0.1 µM (%)
Cc1nnc(-c2ccc(Oc3cc(OC4CCN(C)C4=O)cc(C(=O)Nc4ncc(Br)s4)c3)cc2)o1 (stereo not shown) [Example 38]	150
Cc1nc(-c2ccc(Oc3cc(OC4CCN(C)C4=O)cc(C(=O)Nc4ncc(C)s4)c3)cc2)no1 (stereo not shown) [Example 23]	168
Cc1csc(NC(=O)c2cc(Oc3ccc(-c4noc(C)n4)cc3)cc(OC3CCN(C)C3=O)c2)n1 (stereo not shown) [Example 22]	163

Okay, next one:
Entry Cc1csc(NC(=O)c2cc(Oc3ccc(-c4nnc(C)o4)cc3)cc(OC3CCN(C4CC4)C3=O)c2)n1 (stereo not shown) [Example 19] ; activity at 0.1 µM = 114

All figures here come from patent US8835469B2.
